Test: Plasma pharmacokinetics of BI 187004 after single oral doses (LC–MS/MS)
Details: male, human, plasma, po, 240 mg, BI 187004 plasma concentrations, Min, 240 mg single oral, planned time 8 h
QUANTITY_MEASURED: concentration at 8 h (µM)

* N#Cc1ccc2c(c1)[C@H]1CCCN(C(=O)c3ccc4[nH]cnc4c3)[C@H]1C2 | 0.181

----------
Assay: Plasma pharmacokinetics of BI 187004 after single oral doses (LC–MS/MS)
Conditions: male, human, plasma, po, 360 mg, BI 187004 plasma concentrations, Mean, 360 mg single oral, planned time 1.5 h
QUANTITY_MEASURED: concentration at 1.5 h (µM)

• N#Cc1ccc2c(c1)[C@H]1CCCN(C(=O)c3ccc4[nH]cnc4c3)[C@H]1C2 = 11.5

----------
Test: Plasma pharmacokinetics of BI 187004 after single oral doses (LC–MS/MS)
Conditions: male, human, plasma, po, 10 mg, Plasma concentration Mean, 10 mg single oral; 24 h
QUANTITY_MEASURED: concentration at 24 h (nM)

- N#Cc1ccc2c(c1)[C@H]1CCCN(C(=O)c3ccc4[nH]cnc4c3)[C@H]1C2: 76.9

----------
Test: Plasma pharmacokinetics of BI 187004 after single oral doses (LC–MS/MS)
Settings: male, human, plasma, po, 360 mg, BI 187004 plasma concentrations, Median, 360 mg single oral, planned time 3 h
QUANTITY_MEASURED: concentration at 3 h (µM)

• N#Cc1ccc2c(c1)[C@H]1CCCN(C(=O)c3ccc4[nH]cnc4c3)[C@H]1C2 = 9.34

----------
Experiment: Plasma pharmacokinetics of BI 187004 after single oral doses (LC–MS/MS)
Conditions: male, human, plasma, po, 160 mg, BI 187004 plasma concentrations, 160 mg single oral, planned time 4 h, Max
QUANTITY_MEASURED: concentration at 4 h (µM)

- N#Cc1ccc2c(c1)[C@H]1CCCN(C(=O)c3ccc4[nH]cnc4c3)[C@H]1C2: 6.75

----------
Assay: Plasma pharmacokinetics of BI 187004 after single oral doses (LC–MS/MS)
Details: male, human, plasma, po, 240 mg, BI 187004 plasma concentrations, gMean, 240 mg single oral, planned time 36 h
QUANTITY_MEASURED: concentration at 36 h (nM)

* N#Cc1ccc2c(c1)[C@H]1CCCN(C(=O)c3ccc4[nH]cnc4c3)[C@H]1C2 | 885

----------
Assay: Plasma pharmacokinetics of BI 187004 after single oral doses (LC–MS/MS)
Conditions: male, human, plasma, po, 2.5 mg
QUANTITY_MEASURED: Cmax (nM)

* N#Cc1ccc2c(c1)[C@H]1CCCN(C(=O)c3ccc4[nH]cnc4c3)[C@H]1C2 | 11.8

----------
Test: Plasma pharmacokinetics of BI 187004 after single oral doses (LC–MS/MS)
Settings: male, human, plasma, po, 80 mg, BI 187004 plasma concentrations, 80 mg single oral, planned time 10 h, gMean
QUANTITY_MEASURED: concentration at 10 h (nM)

• N#Cc1ccc2c(c1)[C@H]1CCCN(C(=O)c3ccc4[nH]cnc4c3)[C@H]1C2 = 1530

----------
Experiment: Plasma pharmacokinetics of BI 187004 after single oral doses (LC–MS/MS)
Conditions: male, human, plasma, po, 40 mg, BI 187004 plasma concentrations, 40 mg single oral, planned time 12 h, gMean
QUANTITY_MEASURED: concentration at 12 h (nM)

• N#Cc1ccc2c(c1)[C@H]1CCCN(C(=O)c3ccc4[nH]cnc4c3)[C@H]1C2 [BI 187004] = 650
